Test system: MEF A1-2A-BIM cells, caspase 3/7 luminescence, 3 h
Experiment: inducers of caspase signal in A1-dependent MEFs – cell-based, luminescence, retest, A1 inhibitor project, dose response (AID 2765)
Activity calls are given as the source filed them.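 Rule for the calls: active = half-maximal concentration for the rise in caspase light signal at or below ten times the top tested dose; inconclusive = flat fit between 30% and 70% activity, or unreliable curve fit; inactive = the rest.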
Field 'call' accepts active, inactive

Example cases with answers are listed next.
molecule	classification
CCC(Sc1ncccc1Nc1ccccn1)C(=O)O (stereo not drawn)	inactive
CCCc1ccc(OCc2ccc(C(=O)N/N=C/c3cccc([N+](=O)[O-])c3)o2)c(OC)c1	active

Here's the next entry for you.
What outcome does the record of this test show for O=C(Cn1c(C(F)(F)F)nc2ccccc21)N=Nc1c(O)[nH]c2ccc(Br)cc12 ?
active
